Test: inhibitors of TNFa-induced NFkB p65 translocation, primary screen, imaging, HUVEC, MLSMR starter and 10KST1 sets (AID 438);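 also: compound added about 3h40 before a 20 min TNFalpha stimulation; signal is the nuclear over cytoplasmic p65 intensity ratio per well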
Details: HUVEC TNFa-induced p65 nuclear translocation; at 2 µM, active compounds read high, 0% TNFa-plus-vehicle, 100% no-TNFa wells
Quick reference for inhibition among some compounds
The response must be a number in % with no trailing unit.

Past entries and their recorded results:
Compound | Recorded value
Cc1ccccc1NC(=O)c1c(F)c(F)c(F)c(F)c1F | -6
CCOc1ccc(-n2c(=O)cc(N3CCN(c4ccccc4)CC3)[nH]c2=O)cc1 | -4.4
CCCCCCNC(=O)Cc1c(O)c2ccccc2[nH]c1=O | 3.2
CCOc1ccccc1Nc1ncnc2ccccc12 | 9.3
COc1ccc2c(=O)c3c(=O)n(Cc4ccco4)c(C(C)C)nc3oc2c1 | -3.9

Prompt line: Fill in the blank: the reported inhibition of `Cc1cc2c(nn1)CCC/C2=N\O` is ____.
Response line: 4.3

Prompt line: Another compound: `Fc1c(F)c(F)c(CSc2nc3ccccc3[nH]2)c(F)c1F`
Response line: 0

Prompt line: Another compound: `N#CCc1nc(CSc2nc3ccccc3s2)cs1`
Response line: -4.4

Prompt line: Another compound: `C=CCOc1nc(N2CCCC2)nc(N2CCCC2)n1`
Response line: -7.6
